// provenance: PubChem BioAssay AID492966

Entries and their IC50 values follow.
Test system: HEp-2 RSV Long CPE inhibition, luminescence
experimentDescription: antiviral activity against RSV Long – cell-based, HEp-2, luminescence, synthesized compounds, set 3, dose response (AID 492966)
Calls of active or inactive are those of the source.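 How the source made its calls: active means compounds that block at least half of the virus-caused cell damage; inactive means the rest.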
readoutType: IC50

[[record]]
smilesentry = "Cc1ccc(NC(=O)[C@@H]2CCCN2S(=O)(=O)c2cccc3cccnc23)cc1"
readouttype = "IC50"
measuredresult = "> 50 µM (inactive)"

[[record]]
smilesentry = "O=C(Nc1ccc(Cl)cc1Cl)[C@@H]1CCCN1S(=O)(=O)c1cccc2cccnc12"
readouttype = "IC50"
measuredresult = "> 50 µM (inactive)"

[[record]]
smilesentry = "Cc1ccccc1NC(=O)[C@@H]1CCCN1S(=O)(=O)c1cccc2cccnc12"
readouttype = "IC50"
measuredresult = "16.5 µM"

